Measured Mean number severity by item
Test system: gastric mucosa
ASSAY NOTES: gastric tolerance (ulcerogenic activity)
RUN CONDITIONS: 50 mg/kg, orally, four consecutive days; severity scale 0-5

| MOLECULE | SYSTEM | Mean number severity |
| --- | --- | --- |
| Cc1ccc(C(=O)c2ccc(CC(=O)O)n2C)cc1 [Tolmetin Na.2H2 O, reference compound] | gastric mucosa | 2 |
| Cc1ccc(C(=O)c2ccc(CC(=O)NCC(=O)Nc3cccc(Cl)c3)n2C)cc1 [Compound 1b] | gastric mucosa | 2 |
| COc1ccc(OC)c(NC(=O)CNC(=O)Cc2ccc(C(=O)c3ccc(C)cc3)n2C)c1 [Compound 1g] | gastric mucosa | 1 |
| COc1ccccc1NC(=O)CNC(=O)Cc1ccc(C(=O)c2ccc(C)cc2)n1C [Compound 1d] | gastric mucosa | 1 |
| Cc1ccc(C(=O)c2ccc(CC(=O)NCC(=O)Nc3cccc(C)c3C)n2C)cc1 [Compound 1f] | gastric mucosa | 1 |

Each recorded value in this set is attributed to patent US4568690A.
